The following compounds are shown together with reported pKd values.
biological target: Alpha-fucosidase-like protein (Bacteroides thetaiotaomicron (strain ATCC 29148 / DSM 2079 / JCM 5827 / CCUG 10774 / NCTC 10582 / VPI-5482 / E50), UniProt Q8ABG8); test: Enzyme Assay; details: pH 8.5; 37 °C
Remember the convention: pKd equals -log10 of concentration in molar.

>>> measured("C[C@@H]1NC[C@@H](O)[C@H](O)[C@@H]1O")
6.43

Shift focus to the following entry.
[ask] pKd lookup needed for CC1NC(CNC(=O)c2cccc3c2C(=O)c2ccccc2-3)C(O)C(O)C1O (configuration not stated) , thanks.
[reply] 6.80

* * *

Target: Alpha-fucosidase-like protein (Bacteroides thetaiotaomicron (strain ATCC 29148 / DSM 2079 / JCM 5827 / CCUG 10774 / NCTC 10582 / VPI-5482 / E50), UniProt Q8ABG8)
Sequence (Q8ABG8 whole entry): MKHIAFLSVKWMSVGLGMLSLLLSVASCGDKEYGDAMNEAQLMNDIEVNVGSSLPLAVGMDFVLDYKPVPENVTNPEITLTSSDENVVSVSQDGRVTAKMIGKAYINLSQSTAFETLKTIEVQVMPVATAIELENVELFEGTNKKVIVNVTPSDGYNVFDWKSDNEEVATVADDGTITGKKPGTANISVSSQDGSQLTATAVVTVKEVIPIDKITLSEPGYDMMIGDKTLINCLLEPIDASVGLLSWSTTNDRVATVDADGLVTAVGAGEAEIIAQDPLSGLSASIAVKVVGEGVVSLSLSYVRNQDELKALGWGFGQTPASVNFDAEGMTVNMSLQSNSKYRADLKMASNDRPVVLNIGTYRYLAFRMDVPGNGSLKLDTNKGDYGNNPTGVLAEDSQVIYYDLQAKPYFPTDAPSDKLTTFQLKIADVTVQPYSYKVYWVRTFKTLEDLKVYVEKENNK
Assay: Enzyme Assay
Conditions: pH 6.5; 37 °C
Protocol: The kinetic studies involving a spectrophotometric product were conducted by monitoring the change in UV/visible absorbance with a Cintra 10 spectrophotometer.
measure name: pKd
Note on units: pKd is unitless, being -log10 of a concentration expressed in mol/L.

[ask] // lookup pKd for `C[C@@H]1NC[C@@H](O)[C@H](O)[C@@H]1O`
[reply] 7.57

* * *

Target: Alpha-fucosidase-like protein (Bacteroides thetaiotaomicron (strain ATCC 29148 / DSM 2079 / JCM 5827 / CCUG 10774 / NCTC 10582 / VPI-5482 / E50))
Sequence (Q8ABG8 whole entry): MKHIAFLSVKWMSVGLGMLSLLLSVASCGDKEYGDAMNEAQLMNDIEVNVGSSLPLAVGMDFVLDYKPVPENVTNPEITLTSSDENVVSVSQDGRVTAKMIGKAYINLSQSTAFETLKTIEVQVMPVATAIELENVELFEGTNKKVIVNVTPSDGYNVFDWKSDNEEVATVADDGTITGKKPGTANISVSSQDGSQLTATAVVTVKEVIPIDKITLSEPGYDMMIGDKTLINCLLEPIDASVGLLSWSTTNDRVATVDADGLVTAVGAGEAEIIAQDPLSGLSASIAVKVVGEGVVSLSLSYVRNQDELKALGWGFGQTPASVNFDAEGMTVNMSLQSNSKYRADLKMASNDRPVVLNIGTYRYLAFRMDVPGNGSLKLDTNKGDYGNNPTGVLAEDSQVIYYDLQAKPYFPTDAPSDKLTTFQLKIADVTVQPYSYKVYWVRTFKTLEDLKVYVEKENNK
Experiment: Enzyme Assay
Conditions: pH 6; 37 °C
Catalogue of compounds with associated Kd
Remember to put the unit after the number in your answer.

>>> measured("C[C@@H]1NC[C@@H](O)[C@H](O)[C@@H]1O")
"14.8 nM"

Turning now to a further record.
[ask] # query: Kd of entry CC1NC(CNC(=O)c2cccc3c2C(=O)c2ccccc2-3)C(O)C(O)C1O (configuration not stated)
[reply] 46.6 nM

These data points were gathered from BindingDB's records for doi:10.1002/cbic.201000339.
